Sourced from patent US8877786B2

target: recombinant human neutral endopeptidase (NEP, EC 3.4.24.11) (Homo sapiens (Human), UniProt P08473); assay: in vitro inhibition of recombinant human neutral endopeptidase (fluorescence lifetime assay); settings: recombinant human NEP 7 pM, 1 hour pre-incubation at room temperature, pH 7.4, substrate Cys(PT14)-Arg-Arg-Leu-Trp-OH 0.7 μM, FLT read after 1 hour
Sequence (P08473 whole entry): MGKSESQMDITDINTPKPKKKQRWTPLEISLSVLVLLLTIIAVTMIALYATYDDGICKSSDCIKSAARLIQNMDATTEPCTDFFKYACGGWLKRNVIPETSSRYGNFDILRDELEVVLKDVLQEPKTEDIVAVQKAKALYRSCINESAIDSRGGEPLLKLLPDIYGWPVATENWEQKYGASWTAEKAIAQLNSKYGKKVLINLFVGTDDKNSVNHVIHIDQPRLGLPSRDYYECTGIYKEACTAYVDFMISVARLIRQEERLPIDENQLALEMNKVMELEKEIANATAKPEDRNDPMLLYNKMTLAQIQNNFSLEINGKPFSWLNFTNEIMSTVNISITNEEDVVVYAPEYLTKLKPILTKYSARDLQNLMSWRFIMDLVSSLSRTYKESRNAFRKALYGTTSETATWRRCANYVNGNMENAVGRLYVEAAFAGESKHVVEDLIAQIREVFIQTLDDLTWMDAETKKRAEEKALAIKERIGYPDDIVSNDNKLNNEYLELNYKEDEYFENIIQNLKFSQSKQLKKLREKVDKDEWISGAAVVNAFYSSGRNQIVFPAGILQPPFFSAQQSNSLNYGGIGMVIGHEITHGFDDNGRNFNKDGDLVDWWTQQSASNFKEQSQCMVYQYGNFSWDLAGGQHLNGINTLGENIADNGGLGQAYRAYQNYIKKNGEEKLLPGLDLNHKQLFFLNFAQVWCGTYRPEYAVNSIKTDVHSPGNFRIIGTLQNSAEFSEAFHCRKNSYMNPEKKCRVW
Each record is given true if its reported IC50 is strictly below 300 pM. Records at or above 300 pM are given false.

[
  {
    "COMPOUND": "C[C@H](N[C@@H](Cc1ccc(-c2cccc(Cl)c2)cc1)C(=O)Nc1nnn[nH]1)C(=O)O [Example 3-1]",
    "LABEL_CLASS": "true"
  },
  {
    "COMPOUND": "C[C@H](N[C@@H](Cc1ccc(-c2ccccc2)cc1)C(=O)Nc1nnn[nH]1)C(=O)O [Example 3-4]",
    "LABEL_CLASS": "false"
  },
  {
    "COMPOUND": "O=C(O)[C@H](CCc1ccccc1)N[C@@H](Cc1ccc(-c2cccc(Cl)c2)cc1)C(=O)Nc1nnn[nH]1 [Example 3-12]",
    "LABEL_CLASS": "true"
  },
  {
    "COMPOUND": "C[C@H](N[C@@H](Cc1ccc(-c2cccc(Cl)c2)cc1)C(=O)Nc1cc(O)no1)C(=O)O [Example 3-7]",
    "LABEL_CLASS": "false"
  }
]
